Give measured Percent Effect for each item. Keep answers brief.
Molecular target: Arginase-2, mitochondrial (Homo sapiens) (UniProt P78540)
Sequence (P78540 whole entry): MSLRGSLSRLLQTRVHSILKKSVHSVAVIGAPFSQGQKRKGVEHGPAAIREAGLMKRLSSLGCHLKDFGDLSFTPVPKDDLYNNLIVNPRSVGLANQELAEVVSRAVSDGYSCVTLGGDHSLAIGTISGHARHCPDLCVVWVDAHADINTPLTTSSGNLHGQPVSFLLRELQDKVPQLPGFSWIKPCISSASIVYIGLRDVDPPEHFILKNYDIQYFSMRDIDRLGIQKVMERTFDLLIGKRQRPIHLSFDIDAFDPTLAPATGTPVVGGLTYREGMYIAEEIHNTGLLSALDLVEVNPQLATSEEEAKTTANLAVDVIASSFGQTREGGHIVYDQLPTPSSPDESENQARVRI
Test: in vitro enzyme assay to detect the production of urea directly proportional to the activity of Arginase II; further: in the data most compounds retested in dose-response had high values
Assay type: functional
Design: scale not given: direction of the effect not stated beside the values
Details: 33.3 µM
Report as a plain number; the unit % is understood.

Query Cc1ccc(CN2CC[C@H]3C[C@@H](c4nc(C5CC5)cs4)O[C@@H]3C2)o1 on Arginase-2, mitochondrial (Homo sapiens) (UniProt P78540); Percent Effect returned: -48.3

Query Cc1nc(C)n(CC2CCCCN2CC(=O)NC2CCOCC2)n1 (stereo unspecified) on Arginase-2, mitochondrial (Homo sapiens) (UniProt P78540); Percent Effect returned: -6.05

Query COCc1cccc(NS(=O)(=O)c2cc(C(=O)O)cs2)c1 on Arginase-2, mitochondrial (Homo sapiens) (UniProt P78540); Percent Effect returned: 2.46

Query Cn1cc(CN2CCCC3(CCN(Cc4cccnc4)C3=O)C2)cn1 (stereo unspecified) on Arginase-2, mitochondrial (Homo sapiens) (UniProt P78540); Percent Effect returned: 7.33

Query CCCS(=O)(=O)N1CCN(c2cc(-n3cnc(C)c3C)nc(C)n2)CC1 on Arginase-2, mitochondrial (Homo sapiens) (UniProt P78540); Percent Effect returned: 9.65

Query COc1ccccc1OCc1cc(C(=O)N2C[C@H](O)[C@@H](N(C)C)C2)n[nH]1 on Arginase-2, mitochondrial (Homo sapiens) (UniProt P78540); Percent Effect returned: 0.442

Query CC(=O)NC1CCCN(C(=O)c2ccc(Br)cc2O)C1 (stereo unspecified) on Arginase-2, mitochondrial (Homo sapiens) (UniProt P78540); Percent Effect returned: 1.6

Query CC(C)c1cc(C(=O)NCCN2CCCS2(=O)=O)n[nH]1 on Arginase-2, mitochondrial (Homo sapiens) (UniProt P78540); Percent Effect returned: 4.92

Query CCc1nc(CN2CCCN(C(=O)COCC3CC3)CC2)cs1 on Arginase-2, mitochondrial (Homo sapiens) (UniProt P78540); Percent Effect returned: 0.82

Query CCc1ccc(NC(=O)C2OC(c3cccs3)=NN2C(C)=O)cc1 (stereo unspecified) on Arginase-2, mitochondrial (Homo sapiens) (UniProt P78540); Percent Effect returned: -0.443

Query CN(C)CCN1CCC2(CCN(C(=O)c3ccc(F)cc3)CC2)C1=O on Arginase-2, mitochondrial (Homo sapiens) (UniProt P78540); Percent Effect returned: 2.28

* * *

Biological target: Sialic acid-binding Ig-like lectin 9 (Homo sapiens)
Experiment: Hs-Siglec9 ALPHAscreen SOP 20170721
Set-up: scale not given: direction of the effect not stated beside the values
Settings: 10 µM
measured_parameter: Percent Effect (%)
Report as a plain number; the unit % is understood.

Note to self: Percent Effect recorded for CC(=O)N1CCC(c2cncc(Oc3ccccc3)n2)CC1 was -2.36

Note to self: Percent Effect recorded for COCCO[C@H]1CCN(C(=O)c2cc(C)on2)[C@H]1Cc1ccccc1 was 3.34

Note to self: Percent Effect recorded for COc1ccc(CNC(=O)c2nn(C)c3c2CS(=O)(=O)CC3)cc1OC was 3.41

Note to self: Percent Effect recorded for OC(CN1CCN(Cc2ccc(F)cc2)CC1)C1CC1 (configuration not stated) was -6.79

Note to self: Percent Effect recorded for CN(C)C(=O)[C@@H]1C[C@@H]2CCN(Cc3nccs3)C[C@@H]2O1 was -1.06

Note to self: Percent Effect recorded for CCc1nc(CN(C)C2CCN(CCc3ccccn3)C2)no1 (configuration not stated) was -5.99

Note to self: Percent Effect recorded for Cc1cnn(C(C)C2CC2)c1NC(=O)c1ccncc1 (configuration not stated) was -2.58

Note to self: Percent Effect recorded for CC(=O)N1CCCN(C(=O)NCc2ccccn2)CC1 was 0.332

Note to self: Percent Effect recorded for COc1cccc(CN2CCOC(Cn3nc(C)cc3C)C2)c1 (configuration not stated) was -0.918

Note to self: Percent Effect recorded for CN(C)CCOCC1CN(Cc2ccsc2)Cc2ccnn2C1 (configuration not stated) was 1.33

Note to self: Percent Effect recorded for OCCn1cc(CN2CCN(CCOc3ccccc3)CC2)cn1 was 0.413

Note to self: Percent Effect recorded for Cc1csc(N2CCN(CCc3ccccn3)CC2C)n1 (configuration not stated) was 9.14

* * *

Target: Tyrosyl-tRNA synthetase, putative (Trypanosoma cruzi (strain CL Brener)) (UniProt Q4DSP6)
Sequence (whole entry): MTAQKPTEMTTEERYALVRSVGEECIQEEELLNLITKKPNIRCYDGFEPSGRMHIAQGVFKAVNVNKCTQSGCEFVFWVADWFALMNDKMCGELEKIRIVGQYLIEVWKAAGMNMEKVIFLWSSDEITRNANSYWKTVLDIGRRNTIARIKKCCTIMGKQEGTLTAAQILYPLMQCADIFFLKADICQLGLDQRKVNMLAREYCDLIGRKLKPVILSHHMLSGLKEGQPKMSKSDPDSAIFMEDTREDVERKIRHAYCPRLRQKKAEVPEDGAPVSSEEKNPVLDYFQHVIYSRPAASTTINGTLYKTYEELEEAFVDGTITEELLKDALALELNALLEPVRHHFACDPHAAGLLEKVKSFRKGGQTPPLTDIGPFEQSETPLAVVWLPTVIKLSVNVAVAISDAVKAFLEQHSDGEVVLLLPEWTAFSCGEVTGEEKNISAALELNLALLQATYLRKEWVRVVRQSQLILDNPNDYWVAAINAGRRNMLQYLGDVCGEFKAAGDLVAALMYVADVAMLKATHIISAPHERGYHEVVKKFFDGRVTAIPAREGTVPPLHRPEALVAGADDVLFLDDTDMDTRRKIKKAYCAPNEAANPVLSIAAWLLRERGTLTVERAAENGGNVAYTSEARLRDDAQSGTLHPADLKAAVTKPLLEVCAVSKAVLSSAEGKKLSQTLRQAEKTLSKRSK
Experiment: Trypanosoma cruzi tyrosyl tRNA synthetase (TcYRS) SOP
Type: functional
Set-up: scale not given: direction of the effect not stated beside the values
Conditions: 30 µM
measured_parameter: Percent Effect (%)
Report as a plain number; the unit % is understood.

Note to self: Percent Effect recorded for CN(Cc1ccccc1Br)C(=O)Cn1nc(-c2ccc(F)cc2)oc1=O was -28.6

Note to self: Percent Effect recorded for CN(C)CC1CN(Cc2ccc3c(c2)OCO3)Cc2nccn2C1 (stereo unspecified) was 0

Note to self: Percent Effect recorded for Cc1ccc2c(n1)N(CCn1cccn1)CCN(C(=O)NC1CC1)C2 was 16.1

Note to self: Percent Effect recorded for O=C(N1CCCC1)N1CCc2ncnc(C3CCOC3)c2CC1 (stereo unspecified) was -1.28

Note to self: Percent Effect recorded for CCn1cc(CN2CCC(c3nnc(CN(C)C)n3CC)CC2)cn1 was 6.17

Note to self: Percent Effect recorded for C=Cc1ccc(C(=O)N2CCCC(Nc3ccc(F)cc3)C2)cc1 (stereo unspecified) was 19.5

Note to self: Percent Effect recorded for Cc1cc(C)n(CC2CCCN2CC(=O)NC2CCOCC2)n1 (stereo unspecified) was 9.76

Note to self: Percent Effect recorded for COc1ccc(Nc2nc3c(C)nn(C)c3c(=O)n2C)c(OC)c1 was 18.5

Note to self: Percent Effect recorded for CC(C)CN1C[C@@H]2CN(C(=O)[C@H]3CCCO3)C[C@@H]2C1=O was 12.5

Note to self: Percent Effect recorded for CNc1oc(-c2ccc(OC)c(S(=O)(=O)N3CCCCC3)c2)nc1C#N was 2.56

Note to self: Percent Effect recorded for CCc1n[nH]c(C2CN(C(=O)c3nc(C)n4ccccc34)CCO2)n1 (stereo unspecified) was 16.5

* * *

Target: Tyrosyl-tRNA synthetase, putative (Trypanosoma cruzi (strain CL Brener))
Test: Trypanosoma cruzi tyrosyl tRNA synthetase (TcYRS) SOP
Format: functional
Design: scale not given: direction of the effect not stated beside the values
Details: 30 µM
Give measured Percent Effect for each item. Keep answers brief.
Report as a plain number; the unit % is understood.

Note to self: Percent Effect recorded for CCO[C@H]1CO[C@@]2(CCCN(S(=O)(=O)c3ccccc3)C2)C1 was 0

Note to self: Percent Effect recorded for NC(=O)c1ccc(N2CCCCC2)c(NC(=O)c2cc(Br)ccc2F)c1 was 6.17

Note to self: Percent Effect recorded for CN(C)C(=O)C1CCCN1CCCNC(=O)c1ccccc1F (stereo unspecified) was 12.5

Note to self: Percent Effect recorded for COc1cc(C(=O)N2CCCS2(=O)=O)cc(Cl)c1OC was 15.4

Note to self: Percent Effect recorded for Cc1nnc(NC(=O)NCc2cccnc2N(C)C)s1 was 21.9

Note to self: Percent Effect recorded for Fc1cccc(CN2CCO[C@H]3[C@@H](OCc4ccccn4)CC[C@@H]32)c1 was 15.4

Note to self: Percent Effect recorded for CCCC(=O)N1CC[C@@H]2[C@H](CC1)N(Cc1cccnc1)CCS2(=O)=O was 8.54

Note to self: Percent Effect recorded for CCc1nnsc1C(=O)N1CCCN(Cc2cnn(C)c2)CC1 was 2.35

Note to self: Percent Effect recorded for O=C(COC(=O)Cc1cccs1)NCc1cccc(NC(=O)C2CC2)c1 was 16.1

Note to self: Percent Effect recorded for CC(C)c1cc(C(F)(F)F)n2nc(CCC(=O)O)nc2n1 was 7.5

Note to self: Percent Effect recorded for CC(=O)N1CCCN(CC(C)(O)c2cccc(C(F)(F)F)c2)CC1 (stereo unspecified) was 16.5
